Run description: drug combination growth inhibition, ovarian cancer – cell-based, oncology-focused library, rucaparib conditional, profiling panel (AID 1508598)
Experimental context: patient-derived ovarian cancer cells, CellTiter-Glo viability, 144 h; at 0.00122 µM; OCI-C5x cells; with rucaparib 10 µM; active compounds read low; 100% = cells with rucaparib alone
Consider the following compounds and their measured viability readings.
Property: viability (%)

> print(dat)
                                    compound   property  quantitative.readout
 1  O=C(Nc1ccccc1-c1cn2c(CN3CCNCC3)csc2n1)c1cnc2ccccc2n1  viability                   101
 2            Cc1cccc(Nc2nc(-c3ccncc3)cs2)c1  viability                   108
 3  C/C(=C\C(=O)Nc1ccccc1C(=O)O)c1ccc2ccccc2c1  viability                   102
 4  Cn1cc(-c2ccc3nnc(Sc4ccc5ncccc5c4)n3n2)cn1  viability                   135
 5  O=c1cc(N2CCOCC2)oc2c(-c3cccc4c3sc3ccccc34)cccc12  viability                   100
 6  CN(c1ncccc1CNc1nc(Nc2ccc3c(c2)CC(=O)N3)ncc1C(F)(F)F)S(C)(=O)=O  viability                   110
 7  Cc1ccc(S(=O)(=O)Nc2nc3ccccc3nc2Nc2ccc3nsnc3c2)cc1  viability                   122
 8  COc1cc(OC2CCN(C)CC2)ccc1Nc1ncc2c(n1)n(C1CCCC1)c(=O)n2C  viability                   107
 9  CNc1nc(-c2ccc3c(N)n[nH]c3c2)cc(N2C[C@@H](C(=O)NC3CCCCC3)CC[C@H]2C)n1  viability                   124
10  C[C@@H](Oc1cc(-c2cnn(C3CCNCC3)c2)cnc1N)c1c(Cl)ccc(F)c1Cl  viability                   124
11  CS(=O)(=O)N1CCc2c(-c3cnc(N)nc3)nc(N3CCOCC3)nc21  viability                   103
12  CC(C)CC(=O)Nc1n[nH]c2c1CN(C(=O)C1CCN(C)CC1)C2(C)C  viability                   108
13  COc1cc(Nc2ncc(F)c(Nc3ccc4c(n3)NC(=O)C(C)(C)O4)n2)cc(OC)c1OC  viability                   111
14  Nc1nc(Nc2ccc(S(N)(=O)=O)cc2)nn1C(=O)c1c(F)cccc1F  viability                  96.6
15  COc1ccc(COc2cc3oc(=O)c4cc(C(C)O)ccc4c3cc2OC)cc1 (centres undefined)  viability                   119
16  Cc1cc(N2CCOCC2)cc2[nH]c(-c3c(NC[C@@H](O)c4cccc(Cl)c4)cc[nH]c3=O)nc12  viability                   126
17  CN[C@H]1CN(c2ccc3c(=O)c(C(=O)O)cn(-c4nccs4)c3n2)C[C@@H]1OC  viability                   121
18     COc1c(C)cnc(Cn2cnc3c(Cl)nc(N)nc32)c1C  viability                   122
19                O=S(=O)(O)CCSSCCS(=O)(=O)O  viability                   106
20  Cc1cc2c(F)c(Oc3ncnn4cc(OC[C@@H](C)O)c(C)c34)ccc2[nH]1  viability                   131
21  COC(=O)c1ccc2c(C(=Nc3ccc(N(C)C(=O)CN4CCN(C)CC4)cc3)c3ccccc3)c(O)[nH]c2c1  viability                   107
22  COc1ccc(S(=O)(=O)Nc2cccnc2Nc2ccc(O)cc2)cc1  viability                   119
23  CN(C)C/C=C/C(=O)Nc1cc2c(Nc3ccc(F)c(Cl)c3)ncnc2cc1O[C@H]1CCOC1  viability                   116
24  Cc1ccc(F)c(NC(=O)Nc2ccc(-c3cccc4[nH]nc(N)c34)cc2)c1  viability                   108
25  Nc1cc(C(F)(F)F)c(-c2cc(N3CCOCC3)nc(N3CCOCC3)n2)cn1  viability                   103
26       Cc1ccc2c(=O)c3cccc(CC(=O)O)c3oc2c1C  viability                   105
27  CN1CCN(c2ccc3nc(-c4c(N)c5c(F)cccc5[nH]c4=O)[nH]c3c2)CC1  viability                   111
28  CC(=O)Nc1cccc(-n2c(=O)n(C3CC3)c(=O)c3c(Nc4ccc(I)cc4F)n(C)c(=O)c(C)c32)c1  viability                   102
29  Cc1cnc(NC(=O)Nc2cc(Br)c(C)cc2OC[C@@H]2CNCCO2)cn1  viability                  84.2
30  Cc1nnc(C(C)C)n1C1CC2CCC(C1)N2CC[C@H](NC(=O)C1CCC(F)(F)CC1)c1ccccc1 (some centres undefined)  viability                   107
31  CC(C)Oc1ccc(C(=O)N[C@H](CNC(=O)CN(C)C)Cc2ccc(-c3cn4cccc([C@H](C)O)c4n3)cc2)cc1Cl  viability                   112
32  CC(/C=C/C(=O)NO)=C\[C@@H](C)C(=O)c1ccc(N(C)C)cc1  viability                   117
33  Nc1ccccc1NC(=O)c1ccc(CNc2nccc(-c3cccnc3)n2)cc1  viability                   112
34            CCCCCCCCc1ccc(CCC(N)(CO)CO)cc1  viability                   110
35  Cc1cnc(-c2cnc(NCCNc3ccc(C#N)cn3)nc2-c2ccc(Cl)cc2Cl)[nH]1  viability                   108
36  Cc1cc(CS(=O)(=O)c2ccccc2)cc(OCc2ccc(CN3CCC[C@@H]3CO)cc2)c1  viability                   113
37  C=CC(=O)N1CCC[C@@H](n2nc(-c3ccc(Oc4ccccc4)cc3)c3c(N)ncnc32)C1  viability                   108
38  CCCS(=O)(=O)Nc1ccc(F)c(C(=O)c2c[nH]c3ncc(-c4ccc(Cl)cc4)cc23)c1F  viability                   112
39  O=C(O)CCC1CCC(c2cc(F)ccc2F)(S(=O)(=O)c2ccc(Cl)cc2)CC1 (centres undefined)  viability                   123
